- Test system: formation of peroxide lipids (rat brain homogenate)
- PROTOCOL DETAILS: activity of inhibiting formation of peroxide lipids (TBA assay, rat brain homogenate supernatant)
- Format: biochemical, rat (Wistar)
- ASSAY SETUP: final concentration 10^-4 M, pH 7.4, 37° C., 30 minutes, malondialdehyde by TBA assay vs control, 100 µM
For each entry below, report its Inhibition Ratio (%) (peroxide lipid inhibition ratio) value.
Write the numeric value and follow it with the unit.

Solved cases (10 shown):
| COMPOUND STRUCTURE STRING | MEASURED VALUE |
| --- | --- |
| O=C1C=C(OCCN2CCCc3ccccc32)C(=O)c2ccccc21 | 97.9% |
| c1coc(CCCN2CCCc3ccccc32)c1 | 90.5% |
| Cn1cncc1CN1CCCc2ccccc21 | 99.0% |
| CCOC(=O)c1cnc(-c2ccccc2)nc1CN1CCCc2ccccc21 | 100.0% |
| Clc1ccc2c(c1)CCCN2Cc1ccco1 | 87.2% |
| c1coc(CN2CCOc3ccccc32)c1 | 56.0% |
| CCOC(=O)c1cnc(C)nc1CN1CCCc2ccccc21 | 100.0% |
| CCOC(=O)c1cncnc1CN1CCCc2ccccc21 | 100.0% |
| Cc1nc(CN2CCCc3ccccc32)cs1 | 88.7% |
| c1coc(CN2CCSc3ccccc32)c1 | 80.9% |

Would you mind listing Inhibition Ratio (%) (peroxide lipid inhibition ratio) for each of the following molecules?
1. Cc1nc(CN2CCc3ccccc32)cs1
2. c1csc(CN2CCc3ccccc32)c1
3. Cc1ncoc1CN1CCCc2ccccc21

Ans:
84.6%
95.4%
97.8%

Would you mind listing Inhibition Ratio (%) (peroxide lipid inhibition ratio) for each of the following molecules?
1. c1coc(CN2CCc3ccccc32)c1
2. CN(C)C(=O)n1cnc(CN2c3ccccc3CCc3ccccc32)c1
3. c1ccc(CN2CCCc3ccccc32)nc1
4. Cc1ccc2c(c1)CCCN2Cc1ccco1
5. c1csc(CN2CCCc3ccccc32)c1

Ans:
1. 87.0%
2. 94.0%
3. 100.0%
4. 85.1%
5. 93.6%
